measured_target: T1, ZIKV-VLP (Native Antigen Inc.) (Zika virus)
T1 construct: also called Zika VLP; ZVLP
assay_name: BLI binning on ZIKV-VLP; 1st mAb: C10
// reported response of 2nd mAb per item
recorded_endpoint: response of 2nd mAb

binder="anti-ZIKV antibody 306-2 (antibody, V domains shown) VH: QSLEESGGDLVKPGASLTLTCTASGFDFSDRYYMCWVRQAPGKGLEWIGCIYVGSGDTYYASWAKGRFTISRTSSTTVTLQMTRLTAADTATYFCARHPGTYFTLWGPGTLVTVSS VL: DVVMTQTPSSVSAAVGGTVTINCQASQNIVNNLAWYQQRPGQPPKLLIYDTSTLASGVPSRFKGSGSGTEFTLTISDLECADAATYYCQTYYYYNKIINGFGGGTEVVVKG" number=4.54
binder="anti-ZIKV antibody 242-3 (antibody, V domains shown, also called clone 242-3) VH: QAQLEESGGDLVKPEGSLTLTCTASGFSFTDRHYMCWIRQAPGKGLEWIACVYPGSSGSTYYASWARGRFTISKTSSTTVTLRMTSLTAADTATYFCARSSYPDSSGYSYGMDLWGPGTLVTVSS VL: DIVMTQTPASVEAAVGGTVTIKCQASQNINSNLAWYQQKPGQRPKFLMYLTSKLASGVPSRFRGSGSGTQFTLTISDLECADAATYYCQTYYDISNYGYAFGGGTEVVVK" number=5.12
binder="anti-ZIKV antibody 289-3 (antibody, V domains shown, also called clone 289-3; subclone 289-3) VH: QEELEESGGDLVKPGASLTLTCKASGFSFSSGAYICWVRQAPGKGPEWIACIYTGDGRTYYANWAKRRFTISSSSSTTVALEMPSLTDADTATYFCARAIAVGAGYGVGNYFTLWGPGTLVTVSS VL: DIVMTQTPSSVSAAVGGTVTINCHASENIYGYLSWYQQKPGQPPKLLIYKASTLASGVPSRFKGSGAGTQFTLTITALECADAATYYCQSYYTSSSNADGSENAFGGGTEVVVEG" number=4.55
binder="anti-ZIKV antibody 78-2 (antibody, V domains shown, also called clone 78-2) VH: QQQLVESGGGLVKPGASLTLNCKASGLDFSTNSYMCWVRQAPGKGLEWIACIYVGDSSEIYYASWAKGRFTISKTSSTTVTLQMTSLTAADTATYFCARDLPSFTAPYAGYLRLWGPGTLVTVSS VL: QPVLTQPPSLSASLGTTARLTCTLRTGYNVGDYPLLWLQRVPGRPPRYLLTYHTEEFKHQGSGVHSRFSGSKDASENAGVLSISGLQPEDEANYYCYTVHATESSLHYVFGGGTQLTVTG" number=3.41
